The measured values listed here are drawn from patent US20240270701A1.

Can you tell me Emax for the items I'm about to list?
# target-entity: B1-AR (Homo sapiens, UniProt P08588)
# Construct: expressed in transfected cells; host or cells: CHO-K1
# Sequence (P08588 whole entry, species assumed): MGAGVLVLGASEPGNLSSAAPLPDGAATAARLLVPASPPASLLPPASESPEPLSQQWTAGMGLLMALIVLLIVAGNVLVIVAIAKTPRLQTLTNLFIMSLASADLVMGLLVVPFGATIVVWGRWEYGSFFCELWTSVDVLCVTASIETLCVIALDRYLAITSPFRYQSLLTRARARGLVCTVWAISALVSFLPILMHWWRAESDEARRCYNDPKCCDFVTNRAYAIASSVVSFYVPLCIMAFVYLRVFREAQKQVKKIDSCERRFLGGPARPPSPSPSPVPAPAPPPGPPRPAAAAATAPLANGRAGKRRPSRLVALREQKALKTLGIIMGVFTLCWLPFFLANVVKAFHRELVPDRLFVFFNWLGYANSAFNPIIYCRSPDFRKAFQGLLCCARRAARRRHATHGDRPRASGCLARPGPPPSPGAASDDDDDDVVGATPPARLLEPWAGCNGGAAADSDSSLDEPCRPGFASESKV
# run-description: cAMP Gs dynamic HTRF assay, cells expressing beta-adrenergic receptor (CHO-K1), B1-AR
# Assay type: cell-based
# setup-conditions: relative to full agonist isoproterenol, read-out: Emax (% iso) (%) [B1-AR]

What value of Emax has been reported for the following compound? CC(C)[C@H](C)NC[C@H](O)c1cccc2[nH]ncc12 [I-40]
70 to 90%

What value of Emax has been reported for the following compound? CC1(N[C@H](CO)c2cncc3[nH]ncc23)CC1 [I-148]
70 to 90%

What value of Emax has been reported for the following compound? C[C@@H](NC[C@H](O)c1ccc(F)c2[nH]ncc12)C1CC1 [I-10]
70 to 90%

What value of Emax has been reported for the following compound? CCC(C)(C)NC[C@H](O)c1cccnc1C [I-165]
70 to 90%

What value of Emax has been reported for the following compound? CCC(C)(CC)NC[C@H](O)c1cccc2[nH]nc(F)c12 [I-30]
> 90%

What value of Emax has been reported for the following compound? CC(C)CNC[C@H](O)c1cccc2[nH]nc(Cl)c12 [I-99]
70 to 90%

What value of Emax has been reported for the following compound? CC1(NC[C@H](O)c2cc(C#N)cc3[nH]ncc23)CC1 [I-155]
70 to 90%

What value of Emax has been reported for the following compound? Cc1n[nH]c2cccc([C@@H](O)CNC3CC3)c12 [I-167]
70 to 90%

What value of Emax has been reported for the following compound? O[C@@H](CNC1CCC1)c1cccc2[nH]nc(Cl)c12 [I-97]
70 to 90%

What value of Emax has been reported for the following compound? CCC(C)(C)NC[C@H](O)c1ccc(Cl)c2[nH]ncc12 [I-49]
70 to 90%

What value of Emax has been reported for the following compound? CC(C)(C)NC[C@H](O)c1ccc(N)nn1 [I-142]
> 90%
